- experimental.details: Induction of interphase microtubule depolymerization in rat A10 cells
- Type: cell-based
Exercise: for every item that follows, state its recorded pEC50.
Output: the number by itself.

[ask] Look up and report measured pEC50 for this entry: `CCOC(=O)c1[nH]c(Br)c(-c2ccc3c(c2)OCO3)c1Br`
[reply] 4.53

[ask] Quickly give me recorded pEC50 for `CCOC(=O)c1[nH]c(Br)c(-c2cc(OC)c(OC)cc2Br)c1Br`
[reply] 4.85

[ask] Item `CCOC(=O)c1[nH]c(Br)c(-c2cc(OC)c(OC)c(OC)c2)c1Br` : provide pEC50
[reply] 4.15

[ask] Identify measured pEC50 corresponding to `COc1cccc(N(C)c2nc(C)nc3c2C[C@@H](C)C3)c1`
[reply] 5.16

[ask] Please supply the value of reported pEC50 for the item `CCOC(=O)c1[nH]c(Br)c(-c2ccc(OC)cc2)c1Br`
[reply] 5.15

[ask] Annotate the compound `Cc1nc2c(c(N(C)c3ccccc3)n1)C[C@H](C)C2` with its measured pEC50.
[reply] 4.37

[ask] In one line, give reported pEC50 of the entry `CCOC(=O)c1[nH]c(Br)c(-c2c[nH]c3ccccc23)c1Br` .
[reply] 4.75

[ask] For `COc1ccc([C@H]2[C@H](c3cc(OC)c(OC)c(OC)c3)C(C)=NN2C(C)=O)cc1O` , write its pEC50.
[reply] 5.35

[ask] Return the recorded pEC50 value; entry: `CCOC(=O)c1[nH]cc(-c2ccc(OC)cc2)c1-c1ccc(OC)cc1`
[reply] 3.3
